Cited source for all entries: patent US20110143948A1

# Tested on: ncRNAs (SEQ ID NO 28-89)
# assay.protocol: ncRNA arrays of melanocytes, keratinocytes, normal skin, melanoma cell lines and patient samples
# Design: species or system human
# experimental.parameters: melanoma patient 26 sample compared to normal skin
Collected ncRNA array expression, patient 26 values appear next to each entry.
Number only, no unit.

## Input Fill in reported ncRNA array expression, patient 26 for this entry: SEQ ID NO 32 (ATTCAAATCTTCATGAATGGCATCACTTGCTTTAGACCCATTTTTTTTTTATTGGTCAGA; DNA, backbone and methylation of C not given here; listed as Homo sapiens)
## Output 3.121

## Input Fill in reported ncRNA array expression, patient 26 for this entry: SEQ ID NO 49 (CGATGGCTTGTCATTGTCCCCTGTCCTGGAACAATAAAGCAAGTGCCTTGTGGTCTCACT; listed as DNA, chemistry not given here; listed as Homo sapiens)
## Output −3.037

## Input Fill in reported ncRNA array expression, patient 26 for this entry: SEQ ID NO 47 (GTATTTGTAATATTTGATTTGCTTTTAGCAGAGAAAACAATAAAAGAATCCAGGAAAAGT; listed as DNA, chemistry not given here; listed as Homo sapiens)
## Output −2.486
